test system: Nucleic Acid; assay: Inhibitory activity against [3H]TdR incorporation into DNA in HL-60 cells during the initial 30-min period.; format: functional, cell-based; conditions: Homo sapiens
observed.property: ID50 (µM)

[[record]]
smiles_data = "CCNCc1cc(OC)c2c(c1)C(=O)c1cccc(OC)c1C2=O"
study_target = "Nucleic Acid"
observed_property = "ID50"
value_reported = 29

[[record]]
smiles_data = "COc1cccc2c1C(=O)c1c(OC)cc(CNCCO)cc1C2=O"
study_target = "Nucleic Acid"
observed_property = "ID50"
value_reported = 46

[[record]]
smiles_data = "CCN(CC)Cc1cc(OC)c2c(c1)C(=O)c1cc(OC)cc(O)c1C2=O"
study_target = "Nucleic Acid"
observed_property = "ID50"
value_reported = 180

[[record]]
smiles_data = "COc1cc(OC)c2c(c1)C(=O)c1cc(CNCCO)cc(OC)c1C2=O"
study_target = "Nucleic Acid"
observed_property = "ID50"
value_reported = 26

[[record]]
smiles_data = "COc1cc(OC)c2c(c1)C(=O)c1cc(CN(CCCl)CCCl)cc(OC)c1C2=O"
study_target = "Nucleic Acid"
observed_property = "ID50"
value_reported = 8.9

[[record]]
smiles_data = "COc1cccc2c1C(=O)c1c(OC)cc(CBr)cc1C2=O"
study_target = "Nucleic Acid"
observed_property = "ID50"
value_reported = 11

[[record]]
smiles_data = "COc1cc(O)c2c(c1)C(=O)c1cc(CN(CCCl)CCCl)cc(O)c1C2=O"
study_target = "Nucleic Acid"
observed_property = "ID50"
value_reported = 12

[[record]]
smiles_data = "COc1cc(OC)c2c(c1)C(=O)c1cc(CBr)cc(OC)c1C2=O"
study_target = "Nucleic Acid"
observed_property = "ID50"
value_reported = 12

[[record]]
smiles_data = "COc1cccc2c1C(=O)c1c(OC)cc(CNCCCl)cc1C2=O"
study_target = "Nucleic Acid"
observed_property = "ID50"
value_reported = 19

[[record]]
smiles_data = "O=C1c2cccc(O)c2C(=O)c2c(O)cc(CN3CCCC3)cc21"
study_target = "Nucleic Acid"
observed_property = "ID50"
value_reported = 10

[[record]]
smiles_data = "O=C1c2cccc(O)c2C(=O)c2c(O)cc(CN(CCCl)CCCl)cc21"
study_target = "Nucleic Acid"
observed_property = "ID50"
value_reported = 69

[[record]]
smiles_data = "CCNCc1cc(OC)c2c(c1)C(=O)c1cc(OC)cc(OC)c1C2=O"
study_target = "Nucleic Acid"
observed_property = "ID50"
value_reported = 13

[[record]]
smiles_data = "COc1cc(O)c2c(c1)C(=O)c1cc(CN(CCO)CCO)cc(O)c1C2=O"
study_target = "Nucleic Acid"
observed_property = "ID50"
value_reported = 45

[[record]]
smiles_data = "COc1cc(CN(CCO)CCO)cc2c1C(=O)c1c(O)cccc1C2=O"
study_target = "Nucleic Acid"
observed_property = "ID50"
value_reported = 89

[[record]]
smiles_data = "O=C1c2cccc(O)c2C(=O)c2c(O)cc(CNCCCl)cc21"
study_target = "Nucleic Acid"
observed_property = "ID50"
value_reported = 39

[[record]]
smiles_data = "COc1cc(O)c2c(c1)C(=O)c1cc(CBr)cc(O)c1C2=O"
study_target = "Nucleic Acid"
observed_property = "ID50"
value_reported = 340

[[record]]
smiles_data = "COc1cc(OC)c2c(c1)C(=O)c1cc(C(Br)Br)cc(OC)c1C2=O"
study_target = "Nucleic Acid"
observed_property = "ID50"
value_reported = 58

[[record]]
smiles_data = "COc1cc(O)c2c(c1)C(=O)c1cc(CNCCCl)cc(O)c1C2=O"
study_target = "Nucleic Acid"
observed_property = "ID50"
value_reported = 220

[[record]]
smiles_data = "O=C1c2cccc(O)c2C(=O)c2c(O)cc(CNCCCO)cc21"
study_target = "Nucleic Acid"
observed_property = "ID50"
value_reported = 16

[[record]]
smiles_data = "CCNCc1cc(O)c2c(c1)C(=O)c1cc(OC)cc(O)c1C2=O"
study_target = "Nucleic Acid"
observed_property = "ID50"
value_reported = 13

[[record]]
smiles_data = "CCN(CC)Cc1cc(O)c2c(c1)C(=O)c1cc(OC)cc(O)c1C2=O"
study_target = "Nucleic Acid"
observed_property = "ID50"
value_reported = 35

[[record]]
smiles_data = "COc1cc(O)c2c(c1)C(=O)c1cc(CBr)cc(OC)c1C2=O"
study_target = "Nucleic Acid"
observed_property = "ID50"
value_reported = 70


* * *

system: Nucleic Acid; assay: Inhibitory activity against [3H]TdR incorporation into DNA in HL-60 cells during the initial 30-min period.; type: functional, cell-based; settings: Homo sapiens
observed.property: ID50 (µM)

[[record]]
smiles_data = "COc1cc(CBr)cc2c1C(=O)c1c(O)cccc1C2=O"
observed_property = "ID50"
unit_info = "µM"
value_reported = 12

[[record]]
smiles_data = "COc1cc(C(Br)Br)cc2c1C(=O)c1c(O)cccc1C2=O"
observed_property = "ID50"
unit_info = "µM"
value_reported = 13

[[record]]
smiles_data = "COc1cc(OC)c2c(c1)C(=O)c1cc(C)cc(OC)c1C2=O"
observed_property = "ID50"
unit_info = "µM"
value_reported = 21

[[record]]
smiles_data = "CCN(CC)Cc1cc(O)c2c(c1)C(=O)c1cccc(O)c1C2=O"
observed_property = "ID50"
unit_info = "µM"
value_reported = 14

[[record]]
smiles_data = "COc1cc(O)c2c(c1)C(=O)c1cc(C(Br)Br)cc(OC)c1C2=O"
observed_property = "ID50"
unit_info = "µM"
value_reported = 23

[[record]]
smiles_data = "CCNCc1cc(O)c2c(c1)C(=O)c1cccc(O)c1C2=O"
observed_property = "ID50"
unit_info = "µM"
value_reported = 18

[[record]]
smiles_data = "O=C1c2cccc(O)c2C(=O)c2c(O)cc(Cn3ccnc3)cc21"
observed_property = "ID50"
unit_info = "µM"
value_reported = 43

[[record]]
smiles_data = "CCN(CC)Cc1cc(OC)c2c(c1)C(=O)c1cccc(OC)c1C2=O"
observed_property = "ID50"
unit_info = "µM"
value_reported = 19

[[record]]
smiles_data = "COc1cc(O)c2c(c1)C(=O)c1cc(CNCCO)cc(O)c1C2=O"
observed_property = "ID50"
unit_info = "µM"
value_reported = 12

[[record]]
smiles_data = "O=C1c2cccc(O)c2C(=O)c2c(O)cc(C(Br)Br)cc21"
observed_property = "ID50"
unit_info = "µM"
value_reported = 39

[[record]]
smiles_data = "COc1cc(OC)c2c(c1)C(=O)c1cc(CN(CCO)CCO)cc(OC)c1C2=O"
observed_property = "ID50"
unit_info = "µM"
value_reported = 17


* * *

Catalogue of compounds with associated Ratio
test system: Nucleic Acid; assay: Ratio for human acute promyelocytic leukemia cells(HL-60) cell growth inhibition and [3H]TdR incorporation into DNA in HL-60 cells; format: functional, cell-based
observed.property: Ratio

[[record]]
smiles_data = "COc1cc(O)c2c(c1)C(=O)c1cc(CN(CCO)CCO)cc(OC)c1C2=O"
study_target = "Nucleic Acid"
observed_property = "Ratio"
value_reported = 0.02

[[record]]
smiles_data = "COc1cccc2c1C(=O)c1c(OC)cc(CN(CCCl)CCCl)cc1C2=O"
study_target = "Nucleic Acid"
observed_property = "Ratio"
value_reported = 7.8

[[record]]
smiles_data = "O=C1c2cccc(O)c2C(=O)c2c(O)cc(CN3CCCC3)cc21"
study_target = "Nucleic Acid"
observed_property = "Ratio"
value_reported = 4.8

[[record]]
smiles_data = "CCN(CC)Cc1cc(OC)c2c(c1)C(=O)c1cc(OC)cc(OC)c1C2=O"
study_target = "Nucleic Acid"
observed_property = "Ratio"
value_reported = 0.53

[[record]]
smiles_data = "COc1cc(CBr)cc2c1C(=O)c1c(O)cccc1C2=O"
study_target = "Nucleic Acid"
observed_property = "Ratio"
value_reported = 1.7

[[record]]
smiles_data = "CCN(CC)Cc1cc(OC)c2c(c1)C(=O)c1cccc(O)c1C2=O"
study_target = "Nucleic Acid"
observed_property = "Ratio"
value_reported = 2.7


* * *

tested on: L1210; test: Inhibitory activity against murine L1210 leukemic cell growth; type: functional; conditions: Mus musculus, read-out: ID50 (the source's name)
pIC50: −log10 of the molar value.
observed.property: pIC50

[[record]]
smiles_data = "O=C1c2cccc(O)c2C(=O)c2c(O)cc(Cn3ccnc3)cc21"
observed_property = "pIC50"
qualifier_sign = "="
value_reported = 5.13

[[record]]
smiles_data = "COc1cccc2c1C(=O)c1c(OC)cc(CN(CCO)CCO)cc1C2=O"
observed_property = "pIC50"
qualifier_sign = "<"
value_reported = 4.30

[[record]]
smiles_data = "O=C1c2cccc(O)c2C(=O)c2c(O)cc(CN3CCCCC3)cc21"
observed_property = "pIC50"
qualifier_sign = "="
value_reported = 5.40

[[record]]
smiles_data = "CCN(CC)Cc1cc(O)c2c(c1)C(=O)c1cccc(O)c1C2=O"
observed_property = "pIC50"
qualifier_sign = "="
value_reported = 5.55

[[record]]
smiles_data = "CCNCc1cc(OC)c2c(c1)C(=O)c1cc(OC)cc(OC)c1C2=O"
observed_property = "pIC50"
qualifier_sign = "="
value_reported = 5.01

[[record]]
smiles_data = "COc1cccc2c1C(=O)c1c(OC)cc(CN(CCCl)CCCl)cc1C2=O"
observed_property = "pIC50"
qualifier_sign = "="
value_reported = 4.89

[[record]]
smiles_data = "CNC(=O)OCCN(CCOC(=O)NC)Cc1cc(OC)c2c(c1)C(=O)c1cccc(O)c1C2=O"
observed_property = "pIC50"
qualifier_sign = "="
value_reported = 4.05

[[record]]
smiles_data = "O=C1c2cccc(O)c2C(=O)c2c(O)cc(CNCCO)cc21"
observed_property = "pIC50"
qualifier_sign = "="
value_reported = 6.80

[[record]]
smiles_data = "COc1cc(OC)c2c(c1)C(=O)c1cc(CN(CCO)CCO)cc(OC)c1C2=O"
observed_property = "pIC50"
qualifier_sign = "<"
value_reported = 4.57

[[record]]
smiles_data = "CCN(CC)Cc1cc(OC)c2c(c1)C(=O)c1cccc(OC)c1C2=O"
observed_property = "pIC50"
qualifier_sign = "="
value_reported = 3.89

[[record]]
smiles_data = "COc1cc(CBr)cc2c1C(=O)c1c(O)cccc1C2=O"
observed_property = "pIC50"
qualifier_sign = "="
value_reported = 5.06

[[record]]
smiles_data = "O=C1c2cccc(O)c2C(=O)c2c(O)cc(CBr)cc21"
observed_property = "pIC50"
qualifier_sign = "="
value_reported = 5.07

[[record]]
smiles_data = "O=C1c2cccc(O)c2C(=O)c2c(O)cc(CN(CCO)CCO)cc21"
observed_property = "pIC50"
qualifier_sign = "="
value_reported = 5.23

